# Experimental Details: sensitizers of A549 cells to miR-34 induction, primary screen, imaging, A549 dox-inducible miR-34, nuclei and caspase counts (AID 1347080); further: test concentration not given here
# Measurement Setup: A549 miR-34 inducible, Hoechst nuclei count, 48 h; measured here: relative caspase fold change +Dox/-Dox
Measure: fold change
Give only the figure.

Note to self: fold change recorded for CC(CO)NC(=O)C1C=C2c3cccc4[nH]cc(c34)C[C@H]2N(C)C1 (stereo partly drawn) was 3.49

Note to self: fold change recorded for CNCCc1ccc(O)c(O)c1 was 1.35

Note to self: fold change recorded for Oc1ccc2c3c1O[C@H]1c4[nH]c5ccccc5c4C[C@@]4(O)C(C2)N(CC2CC2)CCC314 (stereo partly drawn) was 1.69
